EC80 values, listed per item
Tested on: Alternaria solani
Experiment: Antifungal activity against Alternaria solani infected in tomato plant assessed as leaf area with disease after 2 days relative to control
Type: functional
Details: 48 h
value.kind: EC80 (µg/mL)

1) COc1nnc(C)c(-c2ccc(Cl)cc2)c1-c1c(F)cc(F)cc1F ... 57
2) Fc1cc(F)c(-c2c(Cl)nnc(Cl)c2-c2ccc(Cl)cc2)c(F)c1 ... 134
3) Cc1nnc(Cl)c(-c2c(F)cc(F)cc2F)c1-c1ccc(Cl)cc1 ... 2
4) Cc1nnc(Cl)c(-c2c(F)cc(F)cc2F)c1-c1ccc2ccccc2n1 ... 4
5) CSc1nnc(Cl)c(-c2c(F)cc(F)cc2F)c1-c1ccc(Cl)cc1 ... 42
6) COc1cc(F)cc(F)c1-c1c(Cl)nnc(C)c1-c1ccc(Cl)nc1 ... 17
7) CN(C)c1nnc(Cl)c(-c2c(F)cc(F)cc2F)c1-c1ccc(Cl)cc1 ... 16
8) Cc1nnc(Cl)c(-c2ncc(Cl)cc2Cl)c1-c1ccc(Cl)nc1 ... 33
9) Cc1nnc(Cl)c(-c2c(F)cccc2F)c1-c1ccc(Cl)nc1 ... 54
10) Cc1nnc(F)c(-c2c(F)cc(F)cc2F)c1-c1ccc(Cl)cc1 ... 17
11) COc1cc(F)c(-c2c(Cl)nnc(C)c2-c2ccc(Cl)nc2)c(F)c1 ... 1
12) Cc1nnc(C)c(-c2c(F)cc(F)cc2F)c1-c1ccc(Cl)cc1 ... 18
13) COc1nnc(Cl)c(-c2c(F)cc(F)cc2F)c1-c1ccc(Cl)cc1 ... 92
14) Cc1nnc(Cl)c(-c2c(F)cc(F)cc2F)c1-c1ccc(Cl)nc1 ... 2
15) Cc1nnc(Cl)c(-c2c(F)cc(F)cc2F)c1-c1ccc(Cl)s1 ... 49
16) Cc1nnc(Cl)c(-c2c(F)cc(F)cc2F)c1Cc1ccccc1 ... 56
17) C#Cc1ccc(-c2c(C)nnc(Cl)c2-c2c(F)cc(F)cc2F)cc1 ... 1
18) COc1cc(F)c(-c2c(Cl)nnc(C)c2-c2ccc(Cl)nc2)cc1F ... 19

---

Tested on: Zymoseptoria tritici
Assay: Antifungal activity against Mycosphaerella graminicola infected in wheat plant assessed as decrease in wheat leaf blotch relative to control
Type: functional
EC80 values, listed per item
value.kind: EC80

1. COc1nnc(C)c(-c2ccc(Cl)cc2)c1-c1c(F)cc(F)cc1F ... 53 µg/mL
2. COc1cc(F)cc(F)c1-c1c(Cl)nnc(C)c1-c1ccc(Cl)nc1 ... 95 µg/mL
3. Cc1nnc(C)c(-c2c(F)cc(F)cc2F)c1-c1ccc(Cl)cc1 ... 14 µg/mL
4. CN(C)c1nnc(Cl)c(-c2c(F)cc(F)cc2F)c1-c1ccc(Cl)cc1 ... 6 µg/mL
5. Cc1nnc(Cl)c(-c2c(F)cc(F)cc2F)c1-c1ccc(Cl)s1 ... 41 µg/mL
6. Fc1cc(F)c(-c2c(Cl)nnc(Cl)c2-c2ccc(Cl)cc2)c(F)c1 ... 96 µg/mL
7. Cc1nnc(Cl)c(-c2c(F)cc(F)cc2F)c1-c1ccc(Cl)cc1 ... 2 µg/mL
8. COc1nnc(Cl)c(-c2c(F)cc(F)cc2F)c1-c1ccc(Cl)cc1 ... 14 µg/mL
9. Cc1nnc(Cl)c(-c2c(F)cc(F)cc2F)c1Cc1ccccc1 ... 50 µg/mL
10. COc1cc(F)c(-c2c(Cl)nnc(C)c2-c2ccc(Cl)nc2)cc1F ... 46 µg/mL
11. Cc1nnc(Cl)c(-c2c(F)cc(F)cc2F)c1-c1ccc(Cl)nc1 ... 1 µg/mL
12. Cc1nnc(Cl)c(-c2c(F)cc(F)cc2F)c1-c1ccc2ccccc2n1 ... 5 µg/mL
13. COc1cc(F)c(-c2c(Cl)nnc(C)c2-c2ccc(Cl)nc2)c(F)c1 ... 3 µg/mL
14. Cc1nnc(Cl)c(-c2ncc(Cl)cc2Cl)c1-c1ccc(Cl)nc1 ... 9 µg/mL
15. Cc1nnc(Cl)c(-c2c(F)cccc2F)c1-c1ccc(Cl)nc1 ... 60 µg/mL
16. CSc1nnc(Cl)c(-c2c(F)cc(F)cc2F)c1-c1ccc(Cl)cc1 ... 90 µg/mL
17. Cc1nnc(F)c(-c2c(F)cc(F)cc2F)c1-c1ccc(Cl)cc1 ... 191 µg/mL
18. C#Cc1ccc(-c2c(C)nnc(Cl)c2-c2c(F)cc(F)cc2F)cc1 ... 1 µg/mL
19. Cc1nnc(O)c(-c2c(F)cc(F)cc2F)c1-c1ccc(Cl)cc1 ... > 200 µg/mL
